Test system: HK2cc
assay overview: microbe, parasite or virus in culture
Type: cell-based
applied conditions: Hepatitis C virus; HK2cc in separate experiment of FIG. 4

[
  {
    "structure string": "CC(C)OC(=O)[C@H](C)N[P@](=O)(OC[C@H]1O[C@@H](n2ccc(=O)[nH]c2=O)[C@](C)(F)[C@@H]1O)Oc1ccccc1",
    "target entity": "HK2cc",
    "EC50 [nM]": 653
  }
]

----------
System: HK2 (6a)
applied conditions: Hepatitis C virus, Huh7.5, read-out: EC50, nM (95% CI), HK2 (6a)

[
  {
    "structure string": "COC(=O)N[C@H](C(=O)N1CCC[C@H]1C(=O)Nc1ccc([C@@H]2CC[C@@H](c3ccc(NC(=O)[C@@H]4CCCN4C(=O)[C@@H](NC(=O)OC)C(C)C)cc3)N2c2ccc(C(C)(C)C)cc2)cc1)C(C)C",
    "limit sign": "=",
    "EC50 [nM]": 0.6
  },
  {
    "structure string": "CC(C)OC(=O)[C@@H](C)N[P@@](=O)(OC[C@H]1O[C@@H](n2ccc(=O)[nH]c2=O)[C@](C)(Cl)[C@@H]1O)Oc1ccccc1",
    "limit sign": "=",
    "EC50 [nM]": 370
  },
  {
    "structure string": "COc1c(-c2ccc3cc(NS(C)(=O)=O)ccc3c2)cc(-n2ccc(=O)[nH]c2=O)cc1C(C)(C)C",
    "limit sign": "=",
    "EC50 [nM]": 267
  },
  {
    "structure string": "COC[C@H]1C[C@@H](c2nc(-c3ccc4c(c3)COc3cc5c(ccc6nc([C@@H]7CC[C@H](C)N7C(=O)[C@@H](NC(=O)OC)C(C)C)[nH]c65)cc3-4)c[nH]2)N(C(=O)[C@H](NC(=O)OC)c2ccccc2)C1",
    "limit sign": "=",
    "EC50 [nM]": 0.007
  },
  {
    "structure string": "COC(=O)N[C@H](C(=O)N1CCC[C@H]1c1nc(-c2ccc3c(c2)O[C@@H](c2ccccc2)n2c-3cc3cc(-c4c[nH]c([C@@H]5CCCN5C(=O)[C@@H](NC(=O)OC)C(C)C)n4)ccc32)c[nH]1)C(C)C",
    "limit sign": "=",
    "EC50 [nM]": 0.017
  },
  {
    "structure string": "COC(=O)N[C@H](C(=O)N1CC2(CC2)C[C@H]1c1nc(-c2ccc3c(c2)C(F)(F)c2cc(-c4ccc5[nH]c([C@@H]6[C@H]7CC[C@H](C7)N6C(=O)[C@@H](NC(=O)OC)C(C)C)nc5c4)ccc2-3)c[nH]1)C(C)C",
    "limit sign": "=",
    "EC50 [nM]": 0.228
  },
  {
    "structure string": "COc1ccc2c(c1)[C@@H]1C[C@]1(C(=O)N1[C@@H]3CC[C@H]1CN(C)C3)Cn1c-2c(C2CCCCC2)c2ccc(C(=O)NS(=O)(=O)N(C)C)cc21",
    "limit sign": "=",
    "EC50 [nM]": 28.1
  },
  {
    "structure string": "COC(=O)N[C@H](C(=O)N1CCC[C@H]1c1nc2cc([C@H]3CC[C@H](c4cc5nc([C@@H]6CCCN6C(=O)[C@@H](NC(=O)OC)[C@@H](C)OC)[nH]c5cc4F)N3c3cc(F)c(N4CCC(c5ccc(F)cc5)CC4)c(F)c3)c(F)cc2[nH]1)[C@@H](C)OC",
    "limit sign": "=",
    "EC50 [nM]": 0.002
  },
  {
    "structure string": "CC(C)OC(=O)[C@H](C)N[P@](=O)(OC[C@H]1O[C@@H](n2ccc(=O)[nH]c2=O)[C@](C)(F)[C@@H]1O)Oc1ccccc1",
    "limit sign": "=",
    "EC50 [nM]": 393
  },
  {
    "structure string": "CC(C)(C)C#Cc1cc(N(C(=O)[C@H]2CC[C@H](C)CC2)[C@H]2CC[C@H](O)CC2)c(C(=O)O)s1",
    "limit sign": ">",
    "EC50 [nM]": 4000
  },
  {
    "structure string": "CNC(=O)c1c(-c2ccc(F)cc2)oc2cc(N(CCO)S(C)(=O)=O)c(C3CC3)cc12",
    "limit sign": "=",
    "EC50 [nM]": 24
  }
]
